These entries and their values trace back to patent EP4620956A1.

# TARGET OR TEST SYSTEM: PARP2 (Homo sapiens, UniProt Q9UGN5)
# Construct: purchased BPS 80502
# Sequence (Q9UGN5 whole entry): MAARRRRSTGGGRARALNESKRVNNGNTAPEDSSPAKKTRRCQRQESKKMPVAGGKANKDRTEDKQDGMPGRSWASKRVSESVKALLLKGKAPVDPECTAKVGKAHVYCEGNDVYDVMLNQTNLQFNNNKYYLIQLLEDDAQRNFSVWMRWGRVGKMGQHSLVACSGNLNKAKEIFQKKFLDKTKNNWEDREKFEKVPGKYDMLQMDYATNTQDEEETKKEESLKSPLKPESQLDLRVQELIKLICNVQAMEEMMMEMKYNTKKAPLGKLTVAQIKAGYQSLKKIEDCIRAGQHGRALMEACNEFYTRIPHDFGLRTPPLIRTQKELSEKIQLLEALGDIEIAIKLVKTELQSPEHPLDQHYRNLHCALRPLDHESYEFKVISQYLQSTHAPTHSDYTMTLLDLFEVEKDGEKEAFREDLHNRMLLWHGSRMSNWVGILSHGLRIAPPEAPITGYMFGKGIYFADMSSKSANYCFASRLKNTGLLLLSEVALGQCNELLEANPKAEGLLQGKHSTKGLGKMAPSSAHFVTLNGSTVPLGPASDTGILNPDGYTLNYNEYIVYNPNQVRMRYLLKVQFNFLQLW
# MEASUREMENT DESCRIPTION: PARP2-DNA trapping, fluorescence polarization (FP)
# Type: biochemical
# TEST CONTEXT: PARP2, 8 hour
PARAMETER MEASURED: EC50

Tested system PARP2 (Homo sapiens, UniProt Q9UGN5); EC50 recorded for `[2H]C([2H])([2H])NC(=O)c1ccc(N2CCN(Cc3cnc4c(N)c(CC)c(=O)[nH]c4c3)CC2)c(F)n1` was > 10 µM

----------
# TARGET OR TEST SYSTEM: PARP1 (Homo sapiens, UniProt P09874)
# Construct: purchased BPS 80501
# Sequence (P09874 whole entry): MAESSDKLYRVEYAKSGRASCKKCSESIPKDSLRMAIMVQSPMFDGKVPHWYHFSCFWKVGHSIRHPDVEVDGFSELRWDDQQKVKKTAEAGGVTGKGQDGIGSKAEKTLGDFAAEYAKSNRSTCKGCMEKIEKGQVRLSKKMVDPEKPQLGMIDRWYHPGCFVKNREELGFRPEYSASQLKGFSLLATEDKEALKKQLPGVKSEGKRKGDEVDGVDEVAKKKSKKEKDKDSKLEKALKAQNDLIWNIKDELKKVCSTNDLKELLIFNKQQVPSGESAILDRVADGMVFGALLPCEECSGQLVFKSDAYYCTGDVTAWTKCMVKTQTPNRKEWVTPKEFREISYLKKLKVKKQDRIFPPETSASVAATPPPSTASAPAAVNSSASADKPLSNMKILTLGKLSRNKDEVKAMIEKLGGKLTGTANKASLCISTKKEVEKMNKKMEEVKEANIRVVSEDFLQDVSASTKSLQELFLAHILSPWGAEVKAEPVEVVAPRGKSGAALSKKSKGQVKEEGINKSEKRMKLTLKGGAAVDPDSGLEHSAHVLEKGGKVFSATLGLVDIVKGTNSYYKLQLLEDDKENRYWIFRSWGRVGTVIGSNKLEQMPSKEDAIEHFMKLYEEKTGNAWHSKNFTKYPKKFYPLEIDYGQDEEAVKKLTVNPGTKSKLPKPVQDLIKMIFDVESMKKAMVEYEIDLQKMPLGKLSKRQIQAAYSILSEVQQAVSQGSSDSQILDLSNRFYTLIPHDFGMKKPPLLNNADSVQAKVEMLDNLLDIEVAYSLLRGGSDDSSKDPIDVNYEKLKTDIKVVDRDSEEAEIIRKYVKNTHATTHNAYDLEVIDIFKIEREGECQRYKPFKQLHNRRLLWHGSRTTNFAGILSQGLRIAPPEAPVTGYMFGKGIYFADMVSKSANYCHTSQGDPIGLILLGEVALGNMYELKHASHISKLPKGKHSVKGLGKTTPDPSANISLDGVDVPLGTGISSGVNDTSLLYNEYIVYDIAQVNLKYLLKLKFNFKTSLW
# MEASUREMENT DESCRIPTION: PARP1-DNA trapping, fluorescence polarization (FP)
# Type: biochemical
# TEST CONTEXT: PARP1, 48 hour
PARAMETER MEASURED: pEC50
pEC50 is a log-scale quantity: -log10 of the concentration expressed in molar.

# pEC50 of `[2H]C([2H])([2H])NC(=O)c1ccc(N2CCN(Cc3cnc4c(N)c(CC)c(=O)[nH]c4c3)CC2)c(F)n1` = 8.34

----------
# TARGET OR TEST SYSTEM: PARP1 (Homo sapiens, UniProt P09874)
# Construct: purchased BPS 80501
# MEASUREMENT DESCRIPTION: PARP1-DNA trapping, fluorescence polarization (FP)
# Format: biochemical
# TEST CONTEXT: PARP1, 24 hour
PARAMETER MEASURED: EC50 (nM)
Answer with a number only, understood to be in nM.

# EC50 of [2H]C([2H])([2H])NC(=O)c1ccc(N2CCN(Cc3cnc4c(N)c(CC)c(=O)[nH]c4c3)CC2)c(F)n1 [Example 4] = 3.97

----------
# TARGET OR TEST SYSTEM: PARP2 (Homo sapiens, UniProt Q9UGN5)
# Construct: purchased BPS 80502
# MEASUREMENT DESCRIPTION: PARP2-DNA trapping, fluorescence polarization (FP)
# Assay type: biochemical
# TEST CONTEXT: PARP2, 4 hour
pEC50: −log10 of the molar value.
PARAMETER MEASURED: pEC50

# pEC50 of `[2H]C([2H])([2H])NC(=O)c1ccc(N2CCN(Cc3cnc4c(N)c(CC)c(=O)[nH]c4c3)CC2)c(F)n1` = < 5.00

----------
# TARGET OR TEST SYSTEM: PARP2 (Homo sapiens)
# Construct: purchased BPS 80502
# MEASUREMENT DESCRIPTION: DNA trapping capability of PARP2 (HTRF)
# Format: biochemical
# Lookup of reported EC50 keyed by entry
Answer with a number only, understood to be in nM.

Answered examples (3):
- RECORD SMILES: "CCc1c(N)c2ncc(CN3CCN(c4ccc(C(=O)NC)nc4)CC3)cc2[nH]c1=O"
  TARGET OR TEST SYSTEM: "PARP2 (Homo sapiens)"
  U: "nM"
  EC50: 168
- RECORD SMILES: "CCc1c(N)c2ncc(CN3CCN(c4ccc(C(=O)NOC)nc4F)CC3)cc2[nH]c1=O"
  TARGET OR TEST SYSTEM: "PARP2 (Homo sapiens)"
  U: "nM"
  EC50: 338
- RECORD SMILES: "CCc1c(N)c2ncc(CN3CCN(c4ccc(C(=O)NC)nc4F)CC3)cc2[nH]c1=O"
  TARGET OR TEST SYSTEM: "PARP2 (Homo sapiens)"
  U: "nM"
  EC50: 249

Now for the compound whose EC50 we want.
Tested system PARP2 (Homo sapiens); EC50 recorded for `[2H]C([2H])([2H])NC(=O)c1ccc(N2CCN(Cc3cnc4c(N)c(CC)c(=O)[nH]c4c3)CC2)c(F)n1` was 382
